The values you see were collected from the Human Domainome abundance scans (Beltran et al. 2025).

B1: Gamma-crystallin C, residues 91 to 170; numbered along this chain, P07315 (parent)
chain: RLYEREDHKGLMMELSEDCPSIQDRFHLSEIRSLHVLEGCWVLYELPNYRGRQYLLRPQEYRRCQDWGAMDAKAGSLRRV

Variants of: B1
Test: abundance fitness (aPCA) (normalised: wild type 0, dead -1); higher = more abundant; growth selection in yeast, the domain comes from the species named
Details: Homo sapiens
Listing: abundance fitness of selected variants
Readout: abundance fitness

Mutation Notation | Data Value
S76A | -0.628
Q23Y | -0.17
Y3N | -0.633
M70K | -0.053
Q23H | -0.122
E17L | -0.544
R63C | -0.15
Y61L | -0.922
R62A | 0.07
N48W | -0.151
M70P | 0.064
